# testedTarget: ROCK1 (Homo sapiens)
# Construct: purchased DiscoverX (KINOMEscan KdELECT service); host or cells: E. coli BL21-derived (T7 phage) or HEK-293
# Sequence (Q13464 whole entry): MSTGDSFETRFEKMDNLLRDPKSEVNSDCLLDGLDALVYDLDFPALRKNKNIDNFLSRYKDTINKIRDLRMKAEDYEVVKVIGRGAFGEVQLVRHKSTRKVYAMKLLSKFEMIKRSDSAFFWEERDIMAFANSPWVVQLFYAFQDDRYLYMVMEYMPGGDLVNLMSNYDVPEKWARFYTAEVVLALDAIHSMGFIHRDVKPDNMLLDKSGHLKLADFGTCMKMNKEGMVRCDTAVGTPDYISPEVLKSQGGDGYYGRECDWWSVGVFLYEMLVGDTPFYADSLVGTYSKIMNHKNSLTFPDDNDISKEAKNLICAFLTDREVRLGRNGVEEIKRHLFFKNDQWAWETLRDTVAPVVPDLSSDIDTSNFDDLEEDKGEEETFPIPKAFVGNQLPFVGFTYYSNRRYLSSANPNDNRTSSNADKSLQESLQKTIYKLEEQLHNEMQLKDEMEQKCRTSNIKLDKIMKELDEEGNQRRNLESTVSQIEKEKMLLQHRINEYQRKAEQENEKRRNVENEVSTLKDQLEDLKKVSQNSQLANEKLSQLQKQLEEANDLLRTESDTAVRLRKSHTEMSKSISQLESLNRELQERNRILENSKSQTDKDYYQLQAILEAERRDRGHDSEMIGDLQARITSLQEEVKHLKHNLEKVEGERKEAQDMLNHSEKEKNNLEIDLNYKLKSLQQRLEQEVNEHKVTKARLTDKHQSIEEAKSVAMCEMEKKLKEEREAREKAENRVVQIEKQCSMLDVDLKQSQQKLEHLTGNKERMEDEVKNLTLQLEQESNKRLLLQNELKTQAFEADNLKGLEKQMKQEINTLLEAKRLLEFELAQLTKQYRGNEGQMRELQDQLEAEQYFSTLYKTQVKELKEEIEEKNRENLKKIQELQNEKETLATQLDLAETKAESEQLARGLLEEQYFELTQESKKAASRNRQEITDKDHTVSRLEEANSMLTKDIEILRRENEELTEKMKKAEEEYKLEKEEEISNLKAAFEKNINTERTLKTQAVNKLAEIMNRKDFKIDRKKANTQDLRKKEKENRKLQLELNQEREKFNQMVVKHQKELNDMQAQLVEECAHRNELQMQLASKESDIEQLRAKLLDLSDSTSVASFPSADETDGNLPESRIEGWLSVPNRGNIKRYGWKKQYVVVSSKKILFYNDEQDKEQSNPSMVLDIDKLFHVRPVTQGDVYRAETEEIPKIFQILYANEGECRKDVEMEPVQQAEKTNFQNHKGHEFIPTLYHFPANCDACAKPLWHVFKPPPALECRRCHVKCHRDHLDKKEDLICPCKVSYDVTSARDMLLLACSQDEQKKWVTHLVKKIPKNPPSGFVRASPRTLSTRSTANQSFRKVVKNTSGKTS
# protocolDescription: ROCK1 kinase binding affinity, DiscoverX KINOMEscan KdELECT
# settings: equilibrium dissociation constant, 11-point 3-fold dilution series
Counter-ions that a name gives are not always drawn.
parameterMeasured: Kd (µM)
Expressed in µM, but write only the number.

Report Kd, nothing else, for this compound: COCCOc1ccc2c(c1)CN(c1nccc(-c3nccc(C#Cc4ccc5[nH]ncc5c4)n3)n1)C2
0.16

Report Kd, nothing else, for this compound: C(#Cc1ccnc(-c2ccnc(N3CCN(c4ccccc4)CC3)n2)n1)c1ccc2[nH]ncc2c1
9

Report Kd, nothing else, for this compound: C(#Cc1ccnc(-c2ccnc(N3CC(c4ccccc4)C3)n2)n1)c1ccc2[nH]ncc2c1 [Ex. 48, trifluoroacetate]
5.5

Report Kd, nothing else, for this compound: Fc1ccc2c(c1)CN(c1ccnc(-c3ccnc(C#Cc4ccc5[nH]ncc5c4)n3)n1)C2
0.089
